So I've got GI50 readings for HCT-15, take a look.
// return numeric value only (unit: µM, not printed)

See these solved cases before continuing.
{"COMPOUND": "Cc1oc2c(cc(O)c3ccccc32)c2cccc1-2", "TARGET_OF_ASSAY": "HCT-15", "RESULT_UNIT": "µM", "GI50": 99.5}
{"COMPOUND": "CC(=O)N1c2ccccc2C2=CC3C4C(=O)N(c5ccccc5)C(=O)C4C21C1C(=O)N(c2ccccc2)C(=O)C31 (configuration not stated)", "TARGET_OF_ASSAY": "HCT-15", "RESULT_UNIT": "µM", "GI50": 17.1}
{"COMPOUND": "O=C(/C=C/c1ccccc1)Oc1ccc(C(=O)/C=C/c2ccccc2)cc1", "TARGET_OF_ASSAY": "HCT-15", "RESULT_UNIT": "µM", "GI50": 4.29}
{"COMPOUND": "C=C(C)[C@H]1C2=CC(C(=O)OC)=C(C[C@H](C(=C)C)[C@@H](O)[C@@H](O)C3=C[C@H]1OC3=O)O2", "TARGET_OF_ASSAY": "HCT-15", "RESULT_UNIT": "µM", "GI50": 59.8}
{"COMPOUND": "CCCCCCCCCCNCCSSCc1ccc(Cl)cc1", "TARGET_OF_ASSAY": "HCT-15", "RESULT_UNIT": "µM", "GI50": 2.48}

Fill in the recorded GI50 for this compound, with HCT-15 as test system: Clc1ccccc1C(Nc1cnccn1)Nc1cnccn1 8.71

Fill in the recorded GI50 for this compound, with HCT-15 as test system: O=C(O)C(CSC(c1ccccc1)(c1ccccc1)c1ccccc1)/N=C/c1cccs1 (configuration not stated) 4.24

* * *

- Tested on: MOLT-4
- PROCEDURE_TEXT: NCI tumour cell line growth inhibition, 48 h
The source made the active and inactive calls. Cut-off read from the data, not from the text of the source: active = GI50 up to about 1.1 µM and inactive = higher.
Tick one outcome: true (1) for active, false (0) for inactive

{"COMPOUND": "Cn1c2ccccc2n2c3ncccc3c(=S)c(C#N)c12", "CAT": "false (0)"}
{"COMPOUND": "Clc1cccc(Cl)c1C(Nc1nncs1)Nc1nncs1", "CAT": "false (0)"}
{"COMPOUND": "CNC(=O)OCC1=C(COC(=O)NC)C(C)N(c2ccc(OC)cc2)C1 (stereo not drawn)", "CAT": "false (0)"}
{"COMPOUND": "O=C(O)C(SC(=S)c1ccc(C(=S)SC(C(=O)O)c2ccccc2)cc1)c1ccccc1 (stereo not drawn)", "CAT": "false (0)"}
{"COMPOUND": "O=C(Nc1ccc(Cl)cc1C(F)(F)F)C(=O)Nn1c(S)nc2ccccc2c1=O", "CAT": "false (0)"}
{"COMPOUND": "O=C1N/C(=C\\[N+](=O)[O-])c2ccccc21", "CAT": "false (0)"}

Kindly provide the recorded test outcome for the following compound: CC1(C)OC2C(COC(c3ccccc3)(c3ccccc3)c3ccccc3)OC(c3c[nH]c4c(N)ncnc34)C2O1 (stereo not drawn) false (0)

Kindly provide the recorded test outcome for the following compound: CN(CCc1ccc(N)cc1)[C@H]1CCCC[C@H]1N1CCCC1 false (0)

Kindly provide the recorded test outcome for the following compound: CC(=O)OC1C=CC2CCN3C(=O)c4cc5c(cc4[C@H]1C23)OCO5 (stereo partly drawn) false (0)

Kindly provide the recorded test outcome for the following compound: CC(C)[C@@H]1CC[C@@H](C)C[C@H]1OC(=O)/C=C1\C(C(=O)O[C@@H]2C[C@H](C)CC[C@H]2C(C)C)[C@H]2C=C[C@@H]1O2 (stereo partly drawn) false (0)

Kindly provide the recorded test outcome for the following compound: CNC(=O)N(CCCCC(NC(C)=O)C(=O)NCc1ccccc1)Cc1ccccc1 (stereo not drawn) false (0)

* * *

- Test system: SF-268
- PROCEDURE_TEXT: NCI tumour cell line growth inhibition, 48 h
Calls of active or inactive are those of the source. Rule as the data show it: active = GI50 up to about 1.1 µM and inactive = higher.
Measured GI50, listed per entry.

See these solved cases before continuing.
{"COMPOUND": "COc1ccc(CC2c3cc4c(cc3CCN2C)OCO4)c(C=O)c1OC (stereo unspecified)", "TARGET_OF_ASSAY": "SF-268", "GI50": "> 100 µM (inactive)"}
{"COMPOUND": "COC(=O)/C=C1/N=C(N(C)/N=C/c2ccccc2)NC1=O", "TARGET_OF_ASSAY": "SF-268", "GI50": "> 100 µM (inactive)"}
{"COMPOUND": "CC1CSC(=S)N1C(=O)N1C(=S)SCC1C (stereo unspecified)", "TARGET_OF_ASSAY": "SF-268", "GI50": "26.3 µM (inactive)"}
{"COMPOUND": "CC(C)N1[C@@H]2CCCC[C@H]2N(C(C)C)[PH]1=O", "TARGET_OF_ASSAY": "SF-268", "GI50": "> 100 µM (inactive)"}

For C/C(C[n+]1ccccc1)=N\N=C(N)N , what is its reported GI50? > 100 µM (inactive)

For C=CC(Br)(CBr)CCC(Br)C(C)C (stereo unspecified) , what is its reported GI50? 5.48 µM (inactive)

* * *

So I've got GI50 readings for HCT-15, take a look.

For Nc1ccc2nc(-c3ccccn3)c(-c3ccccn3)nc2c1 , what is its reported GI50? > 100 µM

For CN1CCN(Cc2ccccc2)CC1CC#N (stereo not drawn) , what is its reported GI50? > 100 µM

For CCCC(=O)CC(C)C(=O)C(=O)NC12CC3CC(CC(C3)C1)C2 (stereo not drawn) , what is its reported GI50? > 100 µM

* * *

- Test system: HL-60
- PROCEDURE_TEXT: NCI tumour cell line growth inhibition, 48 h
Activity calls are given as the source filed them. Rule as the data show it: active = GI50 up to about 1.1 µM and inactive = higher.
Tick one outcome: true for active, false for inactive

These recorded examples may help you get a feel for the data.
{"COMPOUND": "CC1(C)C2CC1C(/C=N\\OCC(=O)O)=CC2=O (configuration not stated)", "TARGET_OF_ASSAY": "HL-60", "CAT": "false"}
{"COMPOUND": "CC(C)(Oc1ccc2c(=O)cc(-c3ccccc3)oc2c1)C(=O)N1CCN(c2ccccc2)CC1", "TARGET_OF_ASSAY": "HL-60", "CAT": "false"}
{"COMPOUND": "O=[N+]([O-])CCc1cccc([N+](=O)[O-])c1", "TARGET_OF_ASSAY": "HL-60", "CAT": "false"}
{"COMPOUND": "Cc1oc2c(cc(O)c3ccccc32)c2cccc1-2", "TARGET_OF_ASSAY": "HL-60", "CAT": "false"}
{"COMPOUND": "Clc1ccc(/C=C/c2nc(-c3ccccc3)cn3c2nc2ccccc23)cc1Cl", "TARGET_OF_ASSAY": "HL-60", "CAT": "false"}
{"COMPOUND": "c1ccc(CN2CCC(=NN3CCCCC3)CC2)cc1", "TARGET_OF_ASSAY": "HL-60", "CAT": "false"}
{"COMPOUND": "Cn1c2ccccc2n2c3ncccc3c(=S)c(C#N)c12", "TARGET_OF_ASSAY": "HL-60", "CAT": "false"}
{"COMPOUND": "O=C1c2ccncc2C(=O)c2c(O)ccc(O)c21", "TARGET_OF_ASSAY": "HL-60", "CAT": "false"}
{"COMPOUND": "Clc1ccc(-c2nn3c(C45CC6CC(CC(C6)C4)C5)nnc3s2)cc1", "TARGET_OF_ASSAY": "HL-60", "CAT": "false"}
{"COMPOUND": "NS(=O)(=O)c1nn2c(Br)c(-c3ccccc3)nc2s1", "TARGET_OF_ASSAY": "HL-60", "CAT": "false"}

Kindly review the next compound as well.
Kindly provide the recorded test outcome for the following compound: COc1cc(CNc2nc3ccc(C(F)(F)F)cc3nc2-c2ccccc2)cc(OC)c1OC false

* * *

- Tested on: SF-539
- PROCEDURE_TEXT: NCI tumour cell line growth inhibition, 48 h
Activity calls are given as the source filed them. No stated cut-off is given here; in the data, active = GI50 up to about 1.1 µM and inactive = higher.
Tick one outcome: active, inactive

Kindly provide the recorded test outcome for the following molecule: O=C1NC(N2CCOCC2)=N/C1=C\c1ccc(Cl)cc1 inactive

* * *

- System: OVCAR-3
- PROCEDURE_TEXT: NCI tumour cell line growth inhibition, 48 h
Activity calls are given as the source filed them. Rule as the data show it: active = GI50 up to about 1.1 µM and inactive = higher.
Measured GI50, listed per entry.

For C=C(c1ccccc1)[C@@]1(O)CC[C@@H]1N(CC#N)Cc1ccccc1 , what is its reported GI50? 12.3 µM (inactive)

For C[Si](C)(c1ccc(C(=O)O)cc1)c1ccc(C(=O)O)cc1 , what is its reported GI50? > 100 µM (inactive)

For O=C(/C=C/c1ccccc1)Oc1ccc(C(=O)/C=C/c2ccccc2)cc1 , what is its reported GI50? 10.3 µM (inactive)

For CCOC(=O)c1cc2c(C(=O)c3ccc([N+](=O)[O-])cc3)c(C(C)=O)ccc2[nH]1 , what is its reported GI50? > 100 µM (inactive)
